Tested on: SEM cells
Experiment: cell viability relative to DMSO control; higher = less cytotoxic
Settings: RPMI 5 mM glucose + 10% FBS; 48 h; 0.000781 µM
MEASURED_ATTRIBUTE: cell viability (%)
// units = %; emit number, no label

Below, 5 compounds whose answers are already recorded.
COMPOUND | EXPERIMENTAL_TARGET | READOUT_NUMBER
O=C1Nc2ccc(I)cc2/C1=C/c1cc(Br)c(O)c(Br)c1 | SEM cells | 113
CC[C@@]1(O)C(=O)OCC/2=C1/C=C3\N(CC4=CC5=CC(=CC=C5N=C34)O)C2=O | SEM cells | 79.1
C[C@H]1[C@@H](C(=O)C[C@H]2O[C@@H]3O[C@]4(C)CC[C@H]5[C@H](C)CC[C@@H]([C@H]2C)[C@@]35OO4)O[C@@H]2O[C@]3(C)CC[C@H]4[C@H](C)CC[C@@H]1[C@@]24OO3 | SEM cells | 87.2
CC[C@H](C)C(=O)O[C@H]1C[C@H](O)\C=C2\C=C/[C@H](C)[C@H](CC[C@@H](O)C[C@@H](O)CC(O)=O)[C@@H]12 | SEM cells | 98.7
C=CC(=O)Nc1cccc(Nc2nc(NC3CCC(N(C)C)CC3)nc3c2ncn3C(C)C)c1 (stereo not drawn) | SEM cells | 116

In: Report cell viability for `O=C\1N(N\C=C1[N]2C=CN=N2)C3=NC=NC(=C3)N4CCOCC4` please.
Out: 56.6

In: Okay, and `CN1CCC[C@@H]1CCO[C@](C)(c1ccccc1)c1ccc(Cl)cc1` ?
Out: 103

In: Okay, and `CC1(C)CNc2cc(NC(=O)c3cccnc3NCc3ccncc3)ccc21` ?
Out: 85.4

In: Okay, and `CC(C)c1ccc(Cn2ccc3c4c(N)nc(NC5CC5)nc4ccc32)cc1` ?
Out: 107

In: Okay, and NC(=O)C1CCCc2c1[nH]c1ccc(Cl)cc21 (stereo not drawn) ?
Out: 119

In: Okay, and CN1CCN2c3ncccc3Cc3ccccc3C2C1 (stereo not drawn) ?
Out: 116

In: Okay, and `N[S+](=O)([O-])c1cccc2c1C(=O)c1cccc(O)c1C2=O` ?
Out: 95.8

In: Okay, and `COc1ncnc(N[S+](=O)([O-])c2ccc(N)cc2)c1OC` ?
Out: 46

In: Okay, and `CC[C@]12\C=C/CN3CC[C@]4([C@@H](N(C)C5=CC(=C(C=C45)[C@]6(C[C@H]7C[C@H](CN(C7)CC8=C6[NH]C9=C8C=CC=C9)C(C)(F)F)C(=O)OC)OC)[C@](O)([C@@H]1OC(C)=O)C(=O)OC)[C@H]23` ?
Out: 120

In: Okay, and `Cc1cc(Nc2cc(CN3CCOCC3)c3nc(C)c(Cc4ccc(Cl)cc4F)n3n2)[nH]n1` ?
Out: 113
